System: UMC-11
Assay: relative viability (nuclei count vs DMSO), 5 days (fraction); higher = more cells survive
Details: first compound 2.53 µM
Quantity Kind: relative viability
No unit in the answer, please; the number alone is enough.

QUERY: I am curious: what relative viability value has been reported for O=c1cc(-c2cccc3c2Sc2ccccc2S3)oc(N2CCOCC2)c1 + CCNC(=O)c1noc(-c2cc(C(C)C)c(O)cc2O)c1-c1ccc(CN2CCOCC2)cc1 [Luminespib] (partner 0.01 µM) ?
RESULT: 1.25

QUERY: What do you get for O=c1cc(-c2cccc3c2Sc2ccccc2S3)oc(N2CCOCC2)c1 + CS(=O)(=O)N1CCN(Cc2cc3nc(-c4cccc5[nH]ncc45)nc(N4CCOCC4)c3s2)CC1 [Pictilisib] (partner 1 µM) ?
RESULT: 0.752

QUERY: // query: O=c1cc(-c2cccc3c2Sc2ccccc2S3)oc(N2CCOCC2)c1 + Cc1cc(Nc2cc(N3CCN(C)CC3)nc(Sc3ccc(NC(=O)C4CC4)cc3)n2)n[nH]1 [Tozasertib] (partner 0.1 µM)
RESULT: 0.202

----------
System: NCI-H2126
Assay: relative viability (nuclei count vs DMSO), 5 days (fraction); higher = more cells survive
Details: first compound 1 µM
Please respond with reported relative viability for every item in the list.
Number only, please.

QUERY: Entry O=c1cc(N2CCOCC2)oc2c(-c3cccc4c3sc3ccccc34)cccc12 + Cc1nc(NC(=O)N2CCC[C@H]2C(N)=O)sc1-c1ccnc(C(C)(C)C(F)(F)F)c1 [Alpelisib] (partner 2 µM) , system NCI-H2126: what relative viability was measured?
RESULT: 0.729

QUERY: Query O=c1cc(N2CCOCC2)oc2c(-c3cccc4c3sc3ccccc34)cccc12 + Cc1cc(Nc2cc(N3CCN(C)CC3)nc(Sc3ccc(NC(=O)C4CC4)cc3)n2)n[nH]1 [Tozasertib] (partner 0.1 µM) next
RESULT: 0.789

QUERY: How about O=c1cc(N2CCOCC2)oc2c(-c3cccc4c3sc3ccccc34)cccc12 + CC(=O)Nc1cccc(-n2c(=O)n(C3CC3)c(=O)c3c(Nc4ccc(I)cc4F)n(C)c(=O)c(C)c32)c1 [Trametinib] (partner 0.02 µM) ?
RESULT: 0.569

QUERY: Same thing, different molecule: CCN(CC)CCCCNc1ncc2cc(-c3cc(OC)cc(OC)c3)c(NC(=O)NC(C)(C)C)nc2n1 + COc1cccc2cc(-c3nc([C@H]4CC[C@H](C(=O)O)CC4)n4ncnc(N)c34)[nH]c12 [OSI-027] (partner 0.5 µM)
RESULT: 0.707

----------
Test system: NCI-H1755
Assay: relative viability (nuclei count vs DMSO), 5 days (fraction); higher = more cells survive
Settings: first compound 0.08 µM
Quantity Kind: relative viability
Reply briefly: the number, and no unit.

QUERY: Quick one: relative viability of O=c1cc(-c2cccc3c2Sc2ccccc2S3)oc(N2CCOCC2)c1 + Nc1ncn([C@H]2C[C@H](O)[C@@H](CO)O2)c(=O)n1 [Decitabine] (partner 2 µM) ?
RESULT: 0.716

QUERY: Another molecule to look at: COc1nc(C)cnc1NS(=O)(=O)c1cccnc1-c1ccc(-c2nnco2)cc1 [Zibotentan] + C[C@]1(O)C[C@@H](c2nc(-c3ccc4ccc(-c5ccccc5)nc4c3)c3c(N)nccn32)C1 [Linsitinib] (partner 1 µM)
RESULT: 0.99

QUERY: Param item: COc1nc(C)cnc1NS(=O)(=O)c1cccnc1-c1ccc(-c2nnco2)cc1 [Zibotentan] + NC(=O)Nc1cc(-c2cccc(F)c2)sc1C(=O)N[C@H]1CCCNC1 [AZD7762] (partner 0.2 µM)
RESULT: 0.452

----------
Assign relative viability to each entry below.
System: NCI-H838
Assay: relative viability (nuclei count vs DMSO), 5 days (fraction); higher = more cells survive
Conditions: first compound 0.01 µM
The reply should be a number, written without any unit.

QUERY: Tell me reported relative viability for CCN(CC)CCCCNc1ncc2cc(-c3cc(OC)cc(OC)c3)c(NC(=O)NC(C)(C)C)nc2n1 + CCNC(=O)c1noc(-c2cc(C(C)C)c(O)cc2O)c1-c1ccc(CN2CCOCC2)cc1 [Luminespib] (partner 0.01 µM) , tested with NCI-H838.
RESULT: 0.344

QUERY: How about O=c1cc(N2CCOCC2)oc2c(-c3cccc4c3sc3ccccc34)cccc12 + CS(=O)(=O)CCNCc1ccc(-c2ccc3ncnc(Nc4ccc(OCc5cccc(F)c5)c(Cl)c4)c3c2)o1 [Lapatinib] (partner 2 µM) ?
RESULT: 1.08

QUERY: # repeat for O=c1cc(N2CCOCC2)oc2c(-c3cccc4c3sc3ccccc34)cccc12 + CC(=O)Nc1cccc(-n2c(=O)n(C3CC3)c(=O)c3c(Nc4ccc(I)cc4F)n(C)c(=O)c(C)c32)c1 [Trametinib] (partner 0.02 µM)
RESULT: 0.594

QUERY: Next record, please: CCN(CC)CCCCNc1ncc2cc(-c3cc(OC)cc(OC)c3)c(NC(=O)NC(C)(C)C)nc2n1 + Cc1nc(Nc2ncc(C(=O)Nc3c(C)cccc3Cl)s2)cc(N2CCN(CCO)CC2)n1 [Dasatinib] (partner 0.075 µM)
RESULT: 0.259

----------
Tested on: NCI-H1395
Test: relative viability (nuclei count vs DMSO), 5 days (fraction); higher = more cells survive
Conditions: first compound 0.1 µM
Quantity Kind: relative viability
Quick one: just the number, no unit, thanks!

QUERY: Which relative viability value belongs to CCN(CC)CCCCNc1ncc2cc(-c3cc(OC)cc(OC)c3)c(NC(=O)NC(C)(C)C)nc2n1 + O=C(CCCCCCC(=O)Nc1ccccc1)NO [Vorinostat] (partner 1 µM) ?
RESULT: 0.714

QUERY: Repeat for the following molecule: O=c1cc(N2CCOCC2)oc2c(-c3cccc4c3sc3ccccc34)cccc12 + CC1(C)CCC(c2ccc(Cl)cc2)=C(CN2CCN(c3ccc(C(=O)NS(=O)(=O)c4ccc(N[C@H](CCN5CCOCC5)CSc5ccccc5)c(S(=O)(=O)C(F)(F)F)c4)cc3)CC2)C1 [Navitoclax] (partner 0.5 µM)
RESULT: 1.38

QUERY: Moving on to the next molecule: CCN(CC)CCCCNc1ncc2cc(-c3cc(OC)cc(OC)c3)c(NC(=O)NC(C)(C)C)nc2n1 + COc1cc2c(Oc3ccc(NC(=O)C4(C(=O)Nc5ccc(F)cc5)CC4)cc3F)ccnc2cc1OCCCN1CCOCC1 [Foretinib] (partner 0.25 µM)
RESULT: 0.912

----------
Tested on: COR-L 105
Assay: relative viability (nuclei count vs DMSO), 5 days (fraction); higher = more cells survive
Settings: first compound 0.01 µM
For each record, write down the corresponding relative viability.

QUERY: So what's the measured relative viability for this one? O=c1cc(N2CCOCC2)oc2c(-c3cccc4c3sc3ccccc34)cccc12 + Cc1nc(Nc2ncc(C(=O)Nc3c(C)cccc3Cl)s2)cc(N2CCN(CCO)CC2)n1 [Dasatinib] (partner 0.075 µM)
RESULT: 0.316

QUERY: Further, for CCN(CC)CCCCNc1ncc2cc(-c3cc(OC)cc(OC)c3)c(NC(=O)NC(C)(C)C)nc2n1 + CCNC(=O)c1noc(-c2cc(C(C)C)c(O)cc2O)c1-c1ccc(CN2CCOCC2)cc1 [Luminespib] (partner 0.01 µM) ?
RESULT: 0.909

QUERY: And the next one, O=c1cc(N2CCOCC2)oc2c(-c3cccc4c3sc3ccccc34)cccc12 + Nc1nc2[nH]cc(CCc3ccc(C(=O)N[C@@H](CCC(=O)O)C(=O)O)cc3)c2c(=O)[nH]1 [Pemetrexed] (partner 0.2 µM) ?
RESULT: 1.09

QUERY: How about O=c1cc(N2CCOCC2)oc2c(-c3cccc4c3sc3ccccc34)cccc12 + CC(=O)c1c(C)c2cnc(Nc3ccc(N4CCNCC4)cn3)nc2n(C2CCCC2)c1=O [Palbociclib] (partner 0.5 µM) ?
RESULT: 0.41

----------
System: NCI-H2085
Assay: relative viability (nuclei count vs DMSO), 5 days (fraction); higher = more cells survive
Details: first compound 0.2 µM
Field: relative viability. Provide a value for each of the compounds that follow.
Please state the value as a number alone, without comment.

QUERY: Fill in: relative viability of COCC1(CO)C(=O)C2CCN1CC2 (stereo unspecified) [PRIMA-1MET] + CCNC(=O)c1noc(-c2cc(C(C)C)c(O)cc2O)c1-c1ccc(CN2CCOCC2)cc1 [Luminespib] (partner 0.01 µM) is ___
RESULT: 0.55

QUERY: Next compound up: COCC1(CO)C(=O)C2CCN1CC2 (stereo unspecified) [PRIMA-1MET] + COc1cccc2cc(-c3nc([C@H]4CC[C@H](C(=O)O)CC4)n4ncnc(N)c34)[nH]c12 [OSI-027] (partner 0.5 µM)
RESULT: 0.707

QUERY: Note, next up: COCC1(CO)C(=O)C2CCN1CC2 (stereo unspecified) [PRIMA-1MET] + N=C(N)NC(=N)NCCc1ccccc1 [Phenformin] (partner 250 µM)
RESULT: 0.727

QUERY: Next compound up: COCC1(CO)C(=O)C2CCN1CC2 (stereo unspecified) [PRIMA-1MET] + Nc1nc2[nH]cc(CCc3ccc(C(=O)N[C@@H](CCC(=O)O)C(=O)O)cc3)c2c(=O)[nH]1 [Pemetrexed] (partner 0.2 µM)
RESULT: 0.936

QUERY: Also, COCC1(CO)C(=O)C2CCN1CC2 (stereo unspecified) [PRIMA-1MET] + CC(C)C[C@H](NC(=O)[C@H](Cc1ccccc1)NC(=O)c1cnccn1)B(O)O [Bortezomib] (partner 0.002 µM) please.
RESULT: 1.08

QUERY: Queued: COCC1(CO)C(=O)C2CCN1CC2 (stereo unspecified) [PRIMA-1MET] + Nc1ncn([C@H]2C[C@H](O)[C@@H](CO)O2)c(=O)n1 [Decitabine] (partner 2 µM)
RESULT: 0.59

// provenance: the supplement of paper PMC10307832
